experiment: MTT cytotoxicity assay, MDBK; assay type: cell-based, bovine; conditions: bovine, MDBK bovine kidney cells, 48 h incubation, read-out: Cytotoxicity (IC50 μg/mL) MDBK cells
endpoint name: IC50 at 48 h

# chemical string, endpoint name, result
measured = [
    ("COc1c(O)cc2oc(-c3ccc(O)c(O)c3)c(O)c(=O)c2c1O", "IC50 at 48 h", "12.6 µg/mL"),
]

* * *

assay: MTT cytotoxicity assay, CC1; format: cell-based; conditions: rat, CC1 rat epithelial liver cells, 48 h incubation, read-out: Cytotoxicity (IC50 μg/mL) CC1 cells

# chemical string, IC50 at 48 h [µg/mL]
measured = [
    ("COc1c(O)cc2oc(-c3ccc(O)c(O)c3)c(O)c(=O)c2c1O", 5.2),
]
